Provide the reported activation of each item.
test-target: G-protein coupled receptor 151 (Homo sapiens)
test-summary: GPR151 agonism via beta-arrestin recruitment – cell-based, PathHunter beta-arrestin, luminescence, set 2, confirmation (AID 1508608);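 also: 0% = plate median of compound wells and 100% = EA reagent high control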
reported-conditions: GPR151 PathHunter beta-arrestin cells, 90 min, at 11.2 µM, stronger effect = higher value, 100% = signal from added EA reagent
Screen size: about 2,300 compounds; about 20 (0.9%) were called active. What follows is part of a selection rich in actives, with near analogues and random picks from the rest.
Write the value in % as a bare number.

Incoming: What activation value was documented for this molecule, CCOc1ccc(-c2ccc(/C=C3/C(=N)N4C=C(C)SC4=NC3=O)o2)c([N+](=O)[O-])c1 ?
Outgoing: -0.37

Incoming: What activation value was documented for this molecule, COc1cccc(Nc2nc(Nc3cc(C)ccc3C)nc(N3CCOCC3)n2)c1 ?
Outgoing: 8.14

Incoming: What activation value was documented for this molecule, COc1ccc(C(=O)N(c2ccc(C)cc2)S(=O)(=O)c2ccc(C)cc2)cc1OC ?
Outgoing: 6.29

Incoming: What activation value was documented for this molecule, CCC(C)NC(=O)CSc1nnc(-c2ccc(C)cc2)c(-c2ccc(C)cc2)n1 (stereo unspecified) ?
Outgoing: 6.79

Incoming: What activation value was documented for this molecule, CC(=O)c1cccc(NC(=O)Oc2ccccc2)c1 ?
Outgoing: 2.16

Incoming: What activation value was documented for this molecule, CC(=O)NN1C(=O)c2ccc(Oc3ccc4c(c3)C(=O)N(NC(C)=O)C4=O)cc2C1=O ?
Outgoing: 1.35

Incoming: What activation value was documented for this molecule, Cc1ccc2c(c1)NC(C)(C)c1ssc(=Nc3ccc(S(=O)(=O)Nc4nccc(C)n4)cc3)c1-2 ?
Outgoing: 6.63

Incoming: What activation value was documented for this molecule, NC(=O)C1CCN(S(=O)(=O)c2ccc3c(c2)OCC(=O)N3)CC1 ?
Outgoing: -1.83

Incoming: What activation value was documented for this molecule, CCOc1ccc(C(=O)Nc2nc(-c3ccc(CC)cc3)cs2)cc1 ?
Outgoing: 4.71

Incoming: What activation value was documented for this molecule, CSc1ncc(Cl)c(C(=O)Nc2nc3ccc(S(C)(=O)=O)cc3s2)n1 ?
Outgoing: -3.08

Incoming: What activation value was documented for this molecule, COc1ccc(CCNc2cc(C)nc(Nc3ccc(-n4ccnc4)cc3)n2)cc1 ?
Outgoing: 41.2
